Listed below: self-cleavage values for each entry.
B1: CPEB3 Ribozyme (parent)
chain: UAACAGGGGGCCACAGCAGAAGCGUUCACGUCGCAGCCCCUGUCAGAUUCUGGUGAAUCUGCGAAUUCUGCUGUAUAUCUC

variants of: B1; experiment: self-cleavage, relative activity (ratio to wild type); higher = more cleavage; in vitro, sequencing
# print the numeric value only

[[record]]
mutant_designation = "G24A G73C"
recorded_metric = "self-cleavage"
reading = 0.4

[[record]]
mutant_designation = "A2U U67C"
recorded_metric = "self-cleavage"
reading = 0.39

[[record]]
mutant_designation = "A35G U74G"
recorded_metric = "self-cleavage"
reading = 1.27

[[record]]
mutant_designation = "U43G U60A"
recorded_metric = "self-cleavage"
reading = 0.15

[[record]]
mutant_designation = "G22U U41C"
recorded_metric = "self-cleavage"
reading = 0.27


Which self-cleavage value is on record for G7U A57G ?
0.19

Dear colleague, I am looking for the recorded self-cleavage of the following variant: C12G U69A
0.3

// self-cleavage lookup, key: A2U U72C
1.11

Sample C27A A28G — what was its self-cleavage?
0.27

For the variant G10A A45U , what self-cleavage is on record?
0.19

Which self-cleavage value belongs to A75C U80C ?
1.18

Fill in: self-cleavage of U58A U78C is ___
0.42
